# System: 786-0
# assay_protocol: NCI tumour cell line growth inhibition, 48 h
Calls of active or inactive are those of the source. No stated cut-off is given here; in the data, active = GI50 up to about 1.1 µM and inactive = higher.
reported_metric: GI50

Example entries and their recorded answers appear below.
molecule	measurement
O=C1C(C(c2ccc([N+](=O)[O-])cc2)N2CCOCC2)=C(O)C(c2ccccc2)N1c1ccccc1 (configuration not stated)	> 10 µM (inactive)
O=C1c2ccccc2-c2nc3ccncc3n21	> 100 µM (inactive)
Nc1nc(O)c2ncn(C3C=CC(CO)C3)c2n1 (configuration not stated)	> 100 µM (inactive)

Recorded GI50 for O=C1NC2(CCCCC2)C2=C1CCCCC2 with 786-0, please? > 100 µM (inactive)

Return GI50 measured with 786-0 given this molecule: NC(Cc1c[nH]c2cc([N+](=O)[O-])ccc12)C(=O)O (configuration not stated) > 100 µM (inactive)

What GI50 appears in the records for this molecule with 786-0? C=CCN1C(=O)/C(=C/c2ccco2)N=C1SC/C=C/C 28.2 µM (inactive)

What value of GI50 on 786-0 does C=CC(c1ccccc1)[C@@]1(OC(C)=O)C(=O)C(=O)OC1C1COC(C)(C)O1 (some centres not stated) have? 10.4 µM (inactive)

What value of GI50 on 786-0 does Nc1ccc2c(c1)C1Oc3ccccc3CC1CO2 (configuration not stated) have? > 100 µM (inactive)

Query for 786-0: what GI50 does the record show for CC1CCc2c(c(CC3CC(=O)NC(=O)C3)nn2-c2ccccc2)C1 (configuration not stated) ? > 100 µM (inactive)

Given the entry COCOCc1cc(OCc2ccccc2)c(OC)cc1Br , what GI50 was observed with 786-0? > 100 µM (inactive)

Fill in the recorded GI50 for this molecule, with 786-0 as test system: Fc1cc(-c2cc(-c3ccccc3)n[nH]2)c(Cl)cc1Cl > 100 µM (inactive)

So what GI50 did O=C(/C=C/c1cccc([N+](=O)[O-])c1)c1cccnc1 get with 786-0? 16.5 µM (inactive)
